- Experimental system: opiate receptors isolated from rat brain
- Format: binding
- Reported conditions: inhibition of 1 nM 3H-Naloxone specific binding, rat brain membranes; screening concentration 10^-5 M
- Description: Opiate Binding Assay. The test compounds were evaluated for their ability to displace the binding of ^3 H-Naloxone to opiate receptors isolated from rat brain. Male rats [Crl CD(SD)BR] obtained from Charles River Laboratories (Portage, Mich.) were sacrificed by cervical dislocation. […] The binding of the test compounds to the receptor membrane preparation was measured using a modification of the method of Pert and Snyder. […]
Readout kind: pIC50
In plain terms, pIC50 is the concentration in mol/L turned into minus its base-10 logarithm.

Which measured pIC50 belongs to Cc1cc(O)cc(C)c1CC(N)C(=O)N[C@H](C)C(=O)N(C)CCCc1ccccc1.Cl (mixture of isomers) [Example 16, monohydrochloride] , tested on opiate receptors isolated from rat brain?
6.52

Which measured pIC50 belongs to Cc1cc(C)c(C[C@H](N)C(=O)N[C@H](C)C(=O)NCCCc2ccccc2)c(C)c1.Cl [Example 25, monohydrochloride] , tested on opiate receptors isolated from rat brain?
5.70

Which measured pIC50 belongs to Cc1cc(OCc2ccccc2)cc(C)c1C[C@H](N)C(=O)N[C@H](C)C(=O)NCCCc1ccccc1.Cl [Example 27, monohydrochloride] , tested on opiate receptors isolated from rat brain?
6.44

Which measured pIC50 belongs to CNC(Cc1c(C)cc(OCc2ccccc2)cc1C)C(=O)N[C@H](C)C(=O)NCCCc1ccccc1.Cl (mixture of isomers) [Example 12, monohydrochloride] , tested on opiate receptors isolated from rat brain?
5.44

Which measured pIC50 belongs to Cc1cc(O)cc(C)c1CC(N)C(=O)N(C)[C@H](C)C(=O)NCCCc1ccccc1.Cl (mixture of isomers) [Example 15, monohydrochloride] , tested on opiate receptors isolated from rat brain?
9.22

Which measured pIC50 belongs to COc1cc(C)c(C[C@H](N)C(=O)N[C@H](C)C(=O)NCCCc2ccccc2)c(C)c1 [Example 4] , tested on opiate receptors isolated from rat brain?
7.12

Which measured pIC50 belongs to CN[C@@H](Cc1c(C)cc(O)cc1C)C(=O)N[C@H](C)C(=O)NCCCc1ccccc1.CN[C@@H](Cc1c(C)cc(O)cc1C)C(=O)N[C@H](C)C(=O)NCCCc1ccccc1.CN[C@@H](Cc1c(C)cc(O)cc1C)C(=O)N[C@H](C)C(=O)NCCCc1ccccc1.CN[C@@H](Cc1c(C)cc(O)cc1C)C(=O)N[C@H](C)C(=O)NCCCc1ccccc1.Cl.Cl.Cl.Cl.Cl [Example 14] , tested on opiate receptors isolated from rat brain?
6.85

Which measured pIC50 belongs to Cc1cc(OCc2ccccc2)cc(C)c1C[C@@H](N)C(=O)N[C@H](C)C(=O)NCCCc1ccccc1.Cl [Example 28, hydrochloride] , tested on opiate receptors isolated from rat brain?
7.66

Which measured pIC50 belongs to COc1cc(C)c(CC(N)C(=O)N[C@H](C)C(=O)NCCCc2ccccc2)c(C)c1.Cl (mixture of isomers) [Example 2, monohydrochloride] , tested on opiate receptors isolated from rat brain?
6.54

Which measured pIC50 belongs to COc1cc(C)c(C[C@H](N)C(=O)N[C@H](C)C(=O)NCCCc2ccccc2)c(C)c1 [Example 3] , tested on opiate receptors isolated from rat brain?
6.38

Which measured pIC50 belongs to CN[C@@H](Cc1c(C)cc(OC)cc1C)C(=O)N[C@H](C)C(=O)NCCCc1ccccc1.Cl [Example 11, monohydrochloride] , tested on opiate receptors isolated from rat brain?
6.21
